procedureDetails: AUC (0-6h) in rat at 10 mg/kg, po
Format: ADME, organism-based
Set-up: time < 6 hr, dose 10 mg/kg, route oral
details: plasma
measure: AUC(0-t) at 6 h (ng·h/mL)

C[C@H]1OC(=O)[C@@H]2C[C@@H]3CC(F)(F)CC[C@H]3[C@H](/C=C/c3ccc(-c4cccc(Cl)c4)cn3)[C@H]12 1200
C[C@H]1OC(=O)[C@@H]2C[C@@H]3CC(F)(F)CC[C@H]3[C@H](/C=C/c3ccc(-c4cccc(C(F)(F)F)c4)cn3)[C@H]12 1200
C[C@H]1OC(=O)[C@@H]2C[C@H]3[C@@H](CCCC3(F)F)[C@H](/C=C/c3ccc(-c4cccc(C(F)(F)F)c4)cn3)[C@H]12 1200
